System tested: T1, mouse DLL4, full length, overexpressed on CHO or HEK293 cells (mouse, UniProt Q9JI71 27-686)
T1 construct: whole, on cells; also called CHO-mDLL4; CHO-mDII4
T1 sequence (Q9JI71 27-686): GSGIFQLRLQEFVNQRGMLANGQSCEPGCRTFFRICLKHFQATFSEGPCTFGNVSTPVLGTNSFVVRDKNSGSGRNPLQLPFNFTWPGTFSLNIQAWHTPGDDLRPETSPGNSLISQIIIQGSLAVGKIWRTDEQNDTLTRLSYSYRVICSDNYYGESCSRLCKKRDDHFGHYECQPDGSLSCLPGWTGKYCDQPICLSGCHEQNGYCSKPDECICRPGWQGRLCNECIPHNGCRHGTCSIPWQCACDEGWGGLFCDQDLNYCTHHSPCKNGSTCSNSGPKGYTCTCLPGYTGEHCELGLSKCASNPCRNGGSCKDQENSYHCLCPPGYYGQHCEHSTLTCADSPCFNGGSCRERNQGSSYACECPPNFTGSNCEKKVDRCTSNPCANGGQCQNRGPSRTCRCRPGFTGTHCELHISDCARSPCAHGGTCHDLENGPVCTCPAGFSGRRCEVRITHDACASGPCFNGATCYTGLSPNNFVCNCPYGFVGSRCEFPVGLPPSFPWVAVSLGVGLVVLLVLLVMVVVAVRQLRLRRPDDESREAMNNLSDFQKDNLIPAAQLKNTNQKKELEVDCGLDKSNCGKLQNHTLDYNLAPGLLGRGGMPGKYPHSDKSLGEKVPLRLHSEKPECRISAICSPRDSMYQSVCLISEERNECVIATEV
Assay overview: periplasmic extract; FMAT, Notch1/Fc on CHO-mDLL4
// reported % inhibition per item
Quick reminder: number only, in %, skip the unit.

Briefly, % inhibition measured for DLLBII95F02 (VHH, also called DLLBII95F2; not shown: C-terminal c-myc and His6 tags) VHH: EVQLVESGGGSVQAGGSLRLSCAASGRTFSSYAMGWFRQAPGKEREFVAAINWSGGYTYYADSVRGRFTISRDNAKNTVYLQMNSLKPEDTAVYYCAAPAPGSSGYEYDYWGQGTQVTVSS : 71

// field: % inhibition; key: DLLBII83G01 (VHH, also called DLLBII83G1; not shown: C-terminal c-myc and His6 tags) VHH: EVQLVESGGGLVQAGGSLRLSCAASGRTFSNYIMGWFRQAPGKEREFVAGISRYADYTGYADSVKGRFTISRDNVKNTVYLRMNSLKPDDTAVYYCAANEGYCSGYGCYEDSGQYDYWGQGTQVTVSS ; value = 93

Proceeding to the next binder to report its % inhibition.
// recorded % inhibition for DLLBII107C03 (VHH, also called DLLBII107C3; not shown: C-terminal c-myc and His6 tags) VHH: EVQLVESGGGLVQPGGSLRLSCEVSGSIGSVSDMRWYRQAPGLQYELVARITSGSITDYSDSVKGRFTISRDNAKNTVYLQMNSLKPEDTAVYYCNADVQHSAWLKPLTYWGQGTQVTVSS : 80
